From: ChEMBL document CHEMBL1201862

The reader will find reported GI50 values listed item by item below.
# System: COLO 205
# protocol-description: NCI tumour cell line growth inhibition, 48 h
Activity calls are given as the source filed them. Rule as the data show it: active = GI50 up to about 1.1 µM and inactive = higher.

// known answers, use as guide
Req: Dear colleague, I am looking for the recorded GI50 of the following compound: C[C@]1(O)O[C@@H]2OCC[C@@H]2C2=C1C(=O)c1ccccc1C2=O
Resp: 24.9 µM (inactive)

Req: Dear colleague, I am looking for the recorded GI50 of the following compound: S=C(c1c[nH]c2ccccc12)N1CCN(c2ccccc2)CC1
Resp: > 100 µM (inactive)

Req: Dear colleague, I am looking for the recorded GI50 of the following compound: C[N+]1(c2ccccc2)C=C(c2ccccc2)SC1=S (configuration not stated)
Resp: 23.1 µM (inactive)

New cases:
Req: Dear colleague, I am looking for the recorded GI50 of the following compound: CCN1c2ccccc2C(C(SC)S(=O)(=O)c2ccc(C)cc2)c2c1[nH]c(=O)n(C)c2=O (configuration not stated)
Resp: > 100 µM (inactive)

Req: Dear colleague, I am looking for the recorded GI50 of the following compound: COC(=O)C1(Cc2ccccc2C)Cc2ccc(C)cc2C1=O (configuration not stated)
Resp: 19.5 µM (inactive)

Req: Dear colleague, I am looking for the recorded GI50 of the following compound: c1ccc(CSC(SCc2ccccc2)c2cccc3ccccc23)cc1
Resp: > 10 µM (inactive)

Req: Dear colleague, I am looking for the recorded GI50 of the following compound: CCCCCNC(=O)C1C(=O)N(CCCCC)C(=O)/C1=N\N (configuration not stated)
Resp: > 100 µM (inactive)

---

# System: UO-31
# protocol-description: NCI tumour cell line growth inhibition, 48 h
Calls of active or inactive are those of the source. Cut-off read from the data, not from the text of the source: active = GI50 up to about 1.1 µM and inactive = higher.
The reader will find reported GI50 values listed item by item below.

// known answers, use as guide
Req: Dear colleague, I am looking for the recorded GI50 of the following compound: CCCCc1c2c(nc3c1CCc1cc4cc5c(nc4nc1-3)-c1nc3c(c(CCCC)c1CC5)CCC/C3=C\c1ccccc1)/C(=C/c1ccccc1)CCC2
Resp: > 100 µM (inactive)

Req: Dear colleague, I am looking for the recorded GI50 of the following compound: CCOC(=O)c1s/c(=N\Nc2nc3ccccc3cc2C2OCCO2)n(Cc2ccccc2)c1C
Resp: > 100 µM (inactive)

New cases:
Req: Dear colleague, I am looking for the recorded GI50 of the following compound: CSc1nc(SC)c2c(C#N)n[nH]c2n1
Resp: > 100 µM (inactive)

Req: Dear colleague, I am looking for the recorded GI50 of the following compound: O=[N+]([O-])c1cc(/C=N/NS(=O)(=O)c2ccc(F)cc2)c(O)c([N+](=O)[O-])c1
Resp: > 100 µM (inactive)

---

# Tested on: A549
# protocol-description: NCI tumour cell line growth inhibition, 48 h
The source made the active and inactive calls. No stated cut-off is given here; in the data, active = GI50 up to about 1.1 µM and inactive = higher.
The reader will find reported GI50 values listed item by item below.

// known answers, use as guide
Req: What measured GI50 is associated with Cc1ccc(C(=O)OC[C@H]2CC[C@@H](n3cc(N(C)C4CCCCC4)c(=O)[nH]c3=O)O2)cc1 on A549?
Resp: 28.7 µM (inactive)

Req: What measured GI50 is associated with O=C(N/C(=C\c1ccc2c(c1)OCO2)c1nc2ccccc2[nH]1)c1ccccc1 on A549?
Resp: 35.2 µM (inactive)

Req: What measured GI50 is associated with c1ccc(-c2cn3nc(N4CCOCC4)sc3n2)cc1 on A549?
Resp: > 100 µM (inactive)

Here is the next item to consider.
Req: What measured GI50 is associated with Cc1ccc(C(=O)C#Cc2cnc(O)nc2O)cc1 on A549?
Resp: 18.3 µM (inactive)

---

# System: HL-60
# protocol-description: NCI tumour cell line growth inhibition, 48 h
Active and inactive are the calls of the source. Rule as the data show it: active = GI50 up to about 1.1 µM and inactive = higher.
The reader will find reported GI50 values listed item by item below.

Req: Dear colleague, I am looking for the recorded GI50 of the following compound: CC(C)OP(=O)(OC(C)C)C(C)(C)O
Resp: 83.2 µM (inactive)

Req: Dear colleague, I am looking for the recorded GI50 of the following compound: CCN(CC)CCCC(C)Nc1cc(-c2ccccc2)nc2cc(OC)ccc12 (stereo not drawn)
Resp: 2.55 µM (inactive)

Req: Dear colleague, I am looking for the recorded GI50 of the following compound: CN(C)CCS/C(=N\c1ccccc1)n1cccc1
Resp: 32.7 µM (inactive)

---

# Tested on: 786-0
# protocol-description: NCI tumour cell line growth inhibition, 48 h
Activity calls are given as the source filed them. Rule as the data show it: active = GI50 up to about 1.1 µM and inactive = higher.
Select the matching outcome among active, inactive

Req: // param item: O=c1[nH]cc(COCC(O)CO)c(=O)[nH]1 (stereo not given) ; yields the recorded call
Resp: inactive

Req: // param item: Cc1cc2occ(S(=O)(=O)NC(=O)Nc3ccc(Cl)cc3)c(=O)c2c(=O)o1 ; yields the recorded call
Resp: inactive

Req: // param item: N#CC1(C#N)C2C=CC(C3CCC=C32)C1(C#N)C#N (stereo not given) ; yields the recorded call
Resp: inactive

Req: // param item: COc1ccc(/C=C2\N=C(c3ccccc3)N(Nc3nnc(NN4C(=O)/C(=C/c5ccc(OC)cc5)N=C4c4ccccc4)c4ccccc34)C2=O)cc1 ; yields the recorded call
Resp: inactive

New cases:
Req: // param item: O=C(CC(C(=O)c1cccs1)c1cccs1)c1ccccc1Cl (stereo not given) ; yields the recorded call
Resp: inactive

Req: // param item: COc1cc(CNc2ccc(C)cc2)cc(OC)c1OC ; yields the recorded call
Resp: active

Req: // param item: NCCc1ccc2oc3cc(=O)c4ccccc4c-3nc2c1 ; yields the recorded call
Resp: inactive

Req: // param item: Cc1ccc([N+](=O)[O-])cc1S(=O)(=O)Nc1ccc(C2=NN(C(=O)c3ccccc3)C(c3ccccc3O)C2)cc1 (stereo not given) ; yields the recorded call
Resp: inactive

---

# Test system: OVCAR-5
# protocol-description: NCI tumour cell line growth inhibition, 48 h
The source made the active and inactive calls. No stated cut-off is given here; in the data, active = GI50 up to about 1.1 µM and inactive = higher.
readout: GI50

// known answers, use as guide
Req: Dear colleague, I am looking for the recorded GI50 of the following compound: CCOC(=O)c1c2ccc(/C=C/c3ccccc3)ccc-2c(C(=O)OCC)c1N
Resp: > 100 µM (inactive)

Req: Dear colleague, I am looking for the recorded GI50 of the following compound: Cc1cc(C)nc(NS(=O)(=O)c2ccc(NC(=O)c3ccc4nc5ccccc5c(Nc5ccc(S(N)(=O)=O)cc5)c4c3)cc2)n1
Resp: > 100 µM (inactive)

Req: Dear colleague, I am looking for the recorded GI50 of the following compound: COC(=O)[C@@H]1COC(=O)N1
Resp: > 100 µM (inactive)

Req: Dear colleague, I am looking for the recorded GI50 of the following compound: CN1C(=O)C(O)CC1c1cccc(C(F)(F)F)c1 (stereo not drawn)
Resp: > 100 µM (inactive)

New cases:
Req: Dear colleague, I am looking for the recorded GI50 of the following compound: O=C(NNc1ccnc2cc(Cl)ccc12)/C(=C\c1ccccc1Cl)NC(=O)c1ccccc1
Resp: 39.7 µM (inactive)

Req: Dear colleague, I am looking for the recorded GI50 of the following compound: COc1cc(OC)c(/C=C\c2ccnc3ccccc23)c(OC)c1
Resp: 6.05 µM (inactive)

Req: Dear colleague, I am looking for the recorded GI50 of the following compound: O=C(CC(C(=O)c1cccs1)c1cccs1)c1ccccc1Cl (stereo not drawn)
Resp: > 100 µM (inactive)

Req: Dear colleague, I am looking for the recorded GI50 of the following compound: CN(C)CCS/C(=N\c1ccccc1)n1cccc1
Resp: > 100 µM (inactive)

---

# Test system: KM12
# protocol-description: NCI tumour cell line growth inhibition, 48 h
Calls of active or inactive are those of the source. Cut-off read from the data, not from the text of the source: active = GI50 up to about 1.1 µM and inactive = higher.
The reader will find reported GI50 values listed item by item below.

// known answers, use as guide
Req: Dear colleague, I am looking for the recorded GI50 of the following compound: S=C1c2cc(Cl)ccc2N=C(NC2CCCC2)C2CSCN12 (stereo unspecified)
Resp: > 41.4 µM (inactive)

Req: Dear colleague, I am looking for the recorded GI50 of the following compound: Cc1c(-c2cc(-c3ccccc3)n[nH]c2=O)c2ccccc2n1C
Resp: > 100 µM (inactive)

Req: Dear colleague, I am looking for the recorded GI50 of the following compound: CCCC/N=C(/c1ccccc1)N1CCOCC1
Resp: > 100 µM (inactive)

Req: Dear colleague, I am looking for the recorded GI50 of the following compound: C=CCc1cccc2cc(C(=O)Nc3ccccc3)c(=N)oc12
Resp: 38.9 µM (inactive)

Req: Dear colleague, I am looking for the recorded GI50 of the following compound: NCCc1ccc2oc3cc(=O)c4ccccc4c-3nc2c1
Resp: 2.67 µM (inactive)

New cases:
Req: Dear colleague, I am looking for the recorded GI50 of the following compound: N=C(CC(=O)Nc1ccccn1)c1ccccc1
Resp: > 100 µM (inactive)

Req: Dear colleague, I am looking for the recorded GI50 of the following compound: CN1C(=O)CN=C(c2ccccc2F)c2cc(N=C=S)ccc21
Resp: 44.6 µM (inactive)

Req: Dear colleague, I am looking for the recorded GI50 of the following compound: CC(NC(=N)N)C(=O)O (stereo unspecified)
Resp: > 100 µM (inactive)

Req: Dear colleague, I am looking for the recorded GI50 of the following compound: Nc1nc(=O)c(/N=N/c2ccccc2)c(C(=O)O)[nH]1
Resp: > 100 µM (inactive)

Req: Dear colleague, I am looking for the recorded GI50 of the following compound: COC(=O)[C@@H]1[C@@H]2NC(=S)N[C@@]1(C)Oc1ccccc12
Resp: 29.7 µM (inactive)

Req: Dear colleague, I am looking for the recorded GI50 of the following compound: NCCCNCCCCN(CCCN)/[N+]([O-])=N\O
Resp: > 100 µM (inactive)

Req: Dear colleague, I am looking for the recorded GI50 of the following compound: O=c1c2c3c(sc2nc(CN2CCNCC2)n1-c1ccccc1)CCCC3
Resp: > 100 µM (inactive)

Req: Dear colleague, I am looking for the recorded GI50 of the following compound: CCOC(=O)/C(=C\NCC(O)c1ccccc1)c1nc2ccccc2[nH]1 (stereo unspecified)
Resp: 21.6 µM (inactive)

Req: Dear colleague, I am looking for the recorded GI50 of the following compound: CC1(C)CCC(=O)NC1CC(=O)CC1NC(=O)CCC1(C)C (stereo unspecified)
Resp: > 100 µM (inactive)

Req: Dear colleague, I am looking for the recorded GI50 of the following compound: Cc1cc(C)nc(NS(=O)(=O)c2ccc(NC(=O)c3ccc(Cl)c4c(Nc5ccc(S(=O)(=O)Nc6cc(C)on6)cc5)c5ccccc5nc34)cc2)n1
Resp: 18.4 µM (inactive)

Req: Dear colleague, I am looking for the recorded GI50 of the following compound: CC(=O)OC(C)C1C2=C(C(=O)CC1(C)O)C(=O)c1c(ccc(-c3ccc4c(c3O)C(=O)C3=C(C4=O)C(C(C)OC(C)=O)C(C)(O)CC3=O)c1O)C2=O (stereo unspecified)
Resp: 3.19 µM (inactive)
